Biological target: P. falciparum apicoplast DNA polymerase (Pf-apPOL) (Plasmodium falciparum, UniProt Q8ILY1)
Sequence (Q8ILY1 entry or part of it): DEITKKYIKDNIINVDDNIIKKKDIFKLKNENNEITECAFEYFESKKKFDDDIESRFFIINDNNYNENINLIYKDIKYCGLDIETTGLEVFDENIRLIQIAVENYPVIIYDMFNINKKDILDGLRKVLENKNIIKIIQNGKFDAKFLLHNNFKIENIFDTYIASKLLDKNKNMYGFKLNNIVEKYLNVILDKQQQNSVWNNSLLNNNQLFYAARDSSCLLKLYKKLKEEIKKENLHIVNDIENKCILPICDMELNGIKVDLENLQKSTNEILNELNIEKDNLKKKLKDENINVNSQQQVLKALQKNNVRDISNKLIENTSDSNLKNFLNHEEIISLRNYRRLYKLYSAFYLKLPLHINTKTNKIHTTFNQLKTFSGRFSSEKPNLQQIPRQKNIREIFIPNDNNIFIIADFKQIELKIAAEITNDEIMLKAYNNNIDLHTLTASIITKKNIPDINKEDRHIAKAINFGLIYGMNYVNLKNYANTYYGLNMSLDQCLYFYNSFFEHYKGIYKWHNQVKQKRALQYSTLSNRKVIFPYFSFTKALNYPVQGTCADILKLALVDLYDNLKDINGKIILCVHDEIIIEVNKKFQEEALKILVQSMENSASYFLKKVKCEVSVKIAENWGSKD
Experiment: Fluorescence-based high-throughput DNA polymerase assay (molecular beacon), primary screen and dose-response
Type: biochemical
Conditions: DRC-2; 180'; concentration 10
propertyLabel: % inhibition apPOL 180' (%)
Please give a number only; it is taken to be in %.

Some compounds with recorded % inhibition apPOL 180':
O=C(Cn1ccc2c(=O)[nH]ccc21)Nc1cc(F)ccc1F [Molecule 42, O=C(Cn1ccc2c1cc[nH]c2=O)Nc1cc(F)ccc1F]; 24
COc1ccc(CNC(=O)Cn2nc3c(c2NC(=O)Cc2cccs2)CSC3)cc1; 1.41
N#Cc1c(C2CCCCC2)nc(Sc2ccc(C(F)(F)F)cc2[N+](=O)[O-])[nH]c1=O; 46
COc1ccc(C(=O)N2CCc3c(nc4cc(-c5ccccc5Cl)[nH]n4c3=O)C2)cn1; 20
Cc1nc(/N=N/c2ccc(C(=O)[O-])cc2)c(COP(=O)([O-])[O-])c(C=O)c1O.[Na+].[Na+].[Na+]; 39
O=C(Nc1c2c(nn1-c1ccccc1)CSC2)c1ccco1; 24
Cc1cccc2c(C(=O)NC(C)C)cc(N(C)C)nc12; 14
O=C(Cc1cc(=O)[nH]c(SCc2ccccc2)n1)Nc1ccc2c(c1)OCO2; 17
CCOc1cccc2cc(C(=O)Nc3nnc(-c4ccno4)o3)oc12; 29
COc1ccc(NC(=O)Cn2ccc3c(=O)[nH]ccc32)cc1 [Molecule 13, COc1ccc(cc1)NC(=O)Cn1ccc2c1cc[nH]c2=O]; 27

Input CCCCOC(=O)CCCCCN1C(=O)C(=Cc2ccc(OC)cc2)SC1=S . Output % inhibition apPOL 180': 18

Input Cc1ccc(C(=O)/C=C/C=C/C=C/N(C)C)o1 . Output % inhibition apPOL 180': 36

====

Biological target: UniProt:Q8ILY1
Assay: Fluorescence-based high-throughput DNA polymerase assay (molecular beacon), primary screen and dose-response
Assay type: biochemical
Conditions: DRC-2; read at 90'; concentration 20
propertyLabel: % inhibition ApPOL 90' 20 (%)
Please give a number only; it is taken to be in %.

Cn1nc(-c2nc(-c3ccccc3)no2)c2c1CCN(C(=O)Cc1cccs1)C2; 40
Cn1nc(-c2nnc(-c3ccccc3F)o2)c2c1CCN(C(=O)c1ccccc1Cl)C2; 43
COc1ccccc1CC(=O)N1CCc2c(nc3cc(-c4ccccc4Cl)[nH]n3c2=O)C1; 54

Input CC(=O)OCC1=C(C(=O)[O-])N2C(=O)[C@@H](NC(=O)Cc3cccs3)[C@H]2SC1.[Na+] . Output % inhibition ApPOL 90' 20: 20

Input COc1ccc(C2CC(c3ccc(Cl)cc3Cl)Nc3nc(N)nn32)cc1OC (centres unmarked) . Output % inhibition ApPOL 90' 20: 42

Input Nc1cc(Oc2ccc(O)c(N)c2)ccc1O . Output % inhibition ApPOL 90' 20: 65

Input CC(=O)Nc1cc(C(=O)c2cccs2)nn(-c2ccc(Cl)cc2)c1=O . Output % inhibition ApPOL 90' 20: 19

Input C#CC(C=CC)OC(=O)c1ccccc1C(=O)O (centres unmarked) . Output % inhibition ApPOL 90' 20: 48

====

Molecular target: P. falciparum apicoplast DNA polymerase (Pf-apPOL) (Plasmodium falciparum, UniProt Q8ILY1)
Test: Fluorescence-based high-throughput DNA polymerase assay (molecular beacon), primary screen and dose-response
Format: biochemical
Conditions: DRC-1; read at 180'; concentration 40
propertyLabel: % inhibition apPOL 180' 40 (%)
Please give a number only; it is taken to be in %.

Some molecules with recorded % inhibition apPOL 180' 40:
N#Cc1c(O)nc(N2CCCCC2)nc1-c1ccc2c(c1)OCO2 [KU0083146]; 46.9072
Cc1ccsc1Cn1c(C)ccc1C [Molecule 70, Cc1ccsc1Cn1c(C)ccc1C]; 21.8537
C#CC(C=CC)OC(=O)c1ccccc1C(=O)O (stereo not shown) [Molecule 61, CC=CC(OC(=O)c1ccccc1C(=O)O)C#C]; 36.8949

Input COc1ccccc1CC(=O)N1CCc2c(nc3cc(-c4ccccc4Cl)[nH]n3c2=O)C1 [Molecule 49] . Output % inhibition apPOL 180' 40: 52
